System: SNB-75
assay.details: NCI tumour cell line growth inhibition, 48 h
Activity calls are given as the source filed them. Rule as the data show it: active = GI50 up to about 1.1 µM and inactive = higher.

molecule: O=[N+]([O-])c1cccc(/N=N/c2c(O)ccc3ccccc23)c1
GI50: 91 µM (inactive)
--
molecule: O=C(Nc1ccccc1)c1cc(S(=O)(=O)N2CCNC2=O)c(S)cc1Cl
GI50: > 100 µM (inactive)
--
molecule: CC1CC[C@@]2(OC1)O[C@H]1C[C@H]3[C@@H]4CC[C@H]5C[C@@H](OC6OC(CO)C(OC7OC(CO)C(OC8OC(CO)C(O)C(OC9OC(C)C(OC%10OC(C)C(O)C(O)C%10O)C(O)C9O)C8OC8OCC(O)C(O)C8O)C(O)C7O)C(O)C6O)CC[C@]5(C)[C@H]4CC(=O)[C@]3(C)[C@H]1[C@@H]2C (some centres undefined)
GI50: 19.8 µM (inactive)
--
molecule: O=c1cc(O)cc2n1CCC2
GI50: > 100 µM (inactive)
--
molecule: COc1ccc2cc(C(=O)O)ccc2c1OC
GI50: 43 µM (inactive)
--
molecule: CCOC(=O)c1ccc(/N=N/N(C)C(=O)C(C)N)cc1 (centres undefined)
GI50: 55.8 µM (inactive)
--
molecule: CC1OC1P(=O)(O)O (centres undefined)
GI50: > 100 µM (inactive)
--
molecule: COCc1nc(C#N)c(N)o1
GI50: > 10 µM (inactive)
--
molecule: CS(=O)(=O)c1nc(-c2cc3c(c(S(C)(=O)=O)n2)CCCC3)cc2c1CCCC2
GI50: 6.75 µM (inactive)
--
molecule: Nc1c(C(=O)O)c2ccc([N+](=O)[O-])cc2c(=O)n1-c1nc2ccccc2s1
GI50: > 100 µM (inactive)
--
molecule: COc1ccc(/C=C2\N=C(SC)N(CN3CCCCC3)C2=O)cc1
GI50: > 100 µM (inactive)
--
molecule: CC(=O)OCC(OC(C)=O)C(OC(C)=O)C(C=NN(C(C)=O)S(=O)(=O)c1ccc(/C=C2\NC(=O)NC2=O)cc1)OC(C)=O (centres undefined)
GI50: > 100 µM (inactive)
--
molecule: Cc1cc(=O)oc2c(CN3CCCCC3)c(O)ccc12
GI50: > 100 µM (inactive)
--
molecule: COS(=O)(=O)OCCC(NC(=O)OCc1ccccc1)C(=O)OCc1ccccc1 (centres undefined)
GI50: 71.6 µM (inactive)
--
molecule: O=C(NCCN1CCCCC1)c1ccc(I)cc1
GI50: 89.3 µM (inactive)
--
molecule: O=C1C(NCCO)=C(N2CC2)C(=O)C(NCCO)=C1N1CC1
GI50: 63.8 µM (inactive)
--
molecule: CN1CC=C(C#CC(C)(C)O)CC1
GI50: > 37.5 µM (inactive)
--
molecule: CC(=O)NNc1nc(C)c(C(=O)NNC(=O)C(=O)Nc2ccccc2C#N)s1
GI50: > 100 µM (inactive)
--
molecule: COc1ccc(C2c3cc4c(cc3OC(NNc3ccccc3)C2C)OCO4)cc1 (centres undefined)
GI50: 22.6 µM (inactive)
--
molecule: O=[N+]([O-])c1ccc(OCCNc2cccc3ccccc23)cc1
GI50: 89.7 µM (inactive)
--
molecule: COc1cc2c(cc1O)CC[n+]1cc3c(OC)c(OC)ccc3cc1-2
GI50: > 100 µM (inactive)
--
molecule: CC(C(O)c1ccccc1)N(C)/N=N/c1nc2c([nH]1)c(=O)n(C)c(=O)n2C (centres undefined)
GI50: > 100 µM (inactive)
--
molecule: COc1cc2c(cc1OCCN1C(=O)c3cccc4cccc(c34)C1=O)N=C[C@@H]1CCCN1C2=O
GI50: 13.3 µM (inactive)
--
molecule: CCN(CC)CCNC(=O)c1ccccc1NC(=O)C(=O)Nc1ccccc1C(=O)NCCN(CC)CC
GI50: 47 µM (inactive)
--
molecule: CC1(C)OC(CP(c2ccccc2)c2ccccc2)C(CP(c2ccccc2)c2ccccc2)O1 (centres undefined)
GI50: 1.36 µM (inactive)
--
molecule: COc1cc2c[n+](C)c3c4cc(OC)c(OCc5ccccc5)cc4c(OCc4ccccc4)cc3c2cc1OC
GI50: 4.46 µM (inactive)
--
molecule: O=C1C2C3CC4C5C3C1C5C1(SCCS1)C42 (centres undefined)
GI50: > 100 µM (inactive)
--
molecule: Cc1cc2nc3c(C(OC4OC(CO)C(O)C(O)C4O)C(O)CO)nn(-c4ccccc4)c3nc2cc1C (centres undefined)
GI50: 64 µM (inactive)
--
molecule: CCC(C)C(N)C(=O)NC(CC(N)=O)C(=O)NC(CC(C)C)C(=O)NC(CCCCN)C(=O)NC(C)C(=O)NC(CC(C)C)C(=O)NC(C)C(=O)NC(C)C(=O)NC(CC(C)C)C(=O)NC(C)C(=O)NC(CCCCN)C(=O)NC(CCCCN)C(=O)NC(C(=O)NC(CC(C)C)C(N)=O)C(C)CC (centres undefined)
GI50: 6.56 µM (inactive)
--
molecule: O=[N+]([O-])c1ccc(C[P+]2(c3ccccc3)CCCCC2)cc1.[O-][Cl+3]([O-])([O-])[O-]
GI50: > 100 µM (inactive)
--
molecule: COc1ccc(/C=C/C(=O)c2ccc(OC(=O)/C=C/c3ccccc3)cc2)cc1
GI50: 28.9 µM (inactive)
--
molecule: COC(=O)c1cccc(N[C@@H]2c3cc4c(cc3C(c3cc(OC)c(O)c(OC)c3)[C@H]3C(=O)OCC32)OCO4)c1 (some centres undefined)
GI50: 1.87 µM (inactive)
--
molecule: CSc1nc2c(c(N3CCOCC3)n1)C(O)n1c(nc3ccccc31)S2 (centres undefined)
GI50: 30.5 µM (inactive)
--
molecule: N#Cc1c(Cl)c(C=O)c(=O)n2c1[nH]c1ccccc12
GI50: 42.1 µM (inactive)

---

Each entry below carries its reported GI50.
Tested on: T47D
assay.details: NCI tumour cell line growth inhibition, 48 h
Active and inactive are the calls of the source. Cut-off read from the data, not from the text of the source: active = GI50 up to about 1.1 µM and inactive = higher. Where a SMILES comes first, the peptide text is derived from it. The star is where a group is joined. Boc = CC(C)(C)OC(=O)*
observation.type: GI50

molecule: COc1cc2c(cc1C[N+](C)(C)CSc1ccccc1)-c1ccccc1CC2
observed: 2.91 µM (inactive)
--
molecule: COc1cccc2c(Nc3ccc(S(=O)(=O)Nc4ncccn4)cc3)c3ccc([N+](=O)[O-])cc3nc12
observed: 8.22 µM (inactive)
--
molecule: O=C1c2ccccc2C(=O)N1NC1=NCCN1
observed: > 100 µM (inactive)
--
molecule: C[C@]12CC[C@H]3[C@@H](CC=C4C[C@@H](N5CCCC5)CC[C@@]43C)[C@@H]1C[C@H](N1CCCCC1)[C@@H]2O
observed: > 100 µM (inactive)
--
molecule: O=[N+]([O-])/C(C(Cl)=C(Cl)Cl)=C(\Nc1cccc2ccccc12)Sc1ccccc1
observed: 19.5 µM (inactive)
--
molecule: CCN(CC)c1ccc(NC(=S)NN(C)C)cc1
observed: > 10 µM (inactive)
--
molecule: COc1ccc2c(c1OC)C[C@@H]1c3c(cc4c(c3-2)OCO4)CCN1C
observed: 28.8 µM (inactive)
--
molecule: CN1CCC(C(O)(c2ccccc2)c2ccc(Br)cc2)CC1 (configuration not stated)
observed: 23 µM (inactive)
--
molecule: CC(=O)OCC(OC(C)=O)C(OC(C)=O)C(/C=N/N(C(C)=O)S(=O)(=O)c1ccc(/C=C2\NC(=O)NC2=O)cc1)OC(C)=O (configuration not stated)
observed: > 100 µM (inactive)
--
molecule: O=C(CC(Cc1ccccc1)c1ccc(Oc2ccccc2)cc1)Nc1cccc(Cl)c1 (configuration not stated)
observed: 2.92 µM (inactive)
--
molecule: Cc1c2ccccc2c(C2C3C(=O)N(c4cccc5ccccc45)C(=O)C3ON2Cc2ccc(CC(N)=O)cc2)c2ccccc12 (configuration not stated)
observed: 15 µM (inactive)
--
molecule: CC[C@H](C)c1occ2c(O)c(C(=O)O)c(=O)cc-2c1C
observed: 20.7 µM (inactive)
--
molecule: Oc1nc(S)nc2c1CN(CCCN1CCOCC1)CN2
observed: 35.4 µM (inactive)
--
molecule: CCOC(=O)CSc1nnc2cc(CN3CCCC3)c(-c3ccc(Cl)cc3)nn12
observed: 57.5 µM (inactive)
--
molecule: COc1cccc2c1C(=O)C1=C(C2=O)C(O)CC(C)(C)O1 (configuration not stated)
observed: 49.8 µM (inactive)
--
molecule: COc1cc(O)c2c(=O)c(OC)c(-c3ccc4c(c3)OCO4)oc2c1OC
observed: > 50 µM (inactive)
--
molecule: CC(=O)OC(C)(C)CCC(=O)[C@](C)(O)[C@H]1[C@H](O)C[C@@]2(C)[C@@H]3CCc4c(cc(OC5OC(CO)C(O)C(O)C5O)c(O)c4C)C3(C)C(=O)C[C@]12C (some centres not stated)
observed: > 100 µM (inactive)
--
molecule: CS(=O)(=O)c1nc(-c2cc3c(c(S(C)(=O)=O)n2)CCCC3)cc2c1CCCC2
observed: > 100 µM (inactive)
--
molecule: CCOC(=O)/C(C#N)=C/N(CC)/N=C/c1ccccc1
observed: > 100 µM (inactive)
--
molecule: C/C(=N\NC(=S)N1CCN(c2ccccn2)CC1)c1cccc2cccnc12
observed: 3.68 µM (inactive)
--
molecule: CN(/N=C\c1ccc2ccccc2c1)C1=NCCCN1
observed: 22.6 µM (inactive)
--
molecule: CCOC(=O)Cc1c(C)c2cc(C(=O)c3ccccc3)c(O)cc2oc1=O
observed: 28.2 µM (inactive)
--
molecule: NS(=O)(=O)c1nnc(NS(=O)(=O)c2ccc([N+](=O)[O-])cc2)s1
observed: 34.9 µM (inactive)
--
molecule: CCn1c(-c2ccc(F)cc2)nc2c1C(=O)c1ccccc1C2=O
observed: > 100 µM (inactive)
--
molecule: c1ccc2c(c1)N=c1ccccc1=P21c2ccccc2Nc2ccccc21
observed: 0.192 µM (active)
--
molecule: O=C1C(NCCO)=C(N2CC2)C(=O)C(NCCO)=C1N1CC1
observed: > 69.2 µM (inactive)
--
molecule: COc1cc2c(cc1O)CC[n+]1cc3c(OC)c(OC)ccc3cc1-2
observed: 94.4 µM (inactive)
--
molecule: COc1cc(S(=O)(=O)Nc2ccc(-c3csc(N4C(=O)C(C)SC4c4cccs4)n3)cc2)ccc1Cl (configuration not stated)
observed: 10.8 µM (inactive)
--
molecule: O=C1N[C@H]2c3c(Cl)sc(Cl)c3C(=O)[C@H]2O1
observed: 31.6 µM (inactive)
--
molecule: O=[N+]([O-])c1ccc(Cl)cc1N/N=C/c1ccnc2ccccc12
observed: > 100 µM (inactive)
--
molecule: CC(C)(C)OC(=O)NC(Cc1ccccc1)C(=O)N1CCCC1C(N)=O (stereo not drawn) (Boc-Phe-Pro-NH2; configuration not given here)
observed: > 100 µM (inactive)
--
molecule: NC(=O)C(Nc1ccc(Cl)cc1)c1cc2cc(Br)ccc2nc1Cl (configuration not stated)
observed: 37.2 µM (inactive)

Reference source: ChEMBL document CHEMBL1201862
